- test-description: pKa
- Type: physicochemical
- condition: comparable to acetic acid

{"compound": "CC(=O)/C=C1/C=C2OC(CC(=O)O)Cc3cc4cccc(O)c4c(c32)O1 (stereo not shown)", "pKa": "~4.6"}
